- Tested on: HSV-1
- Assay Procedure: Drug sensitivity against HSV-1 in Vero cells at different viral passages
- Format: cell-based
- Study Conditions: Human alphaherpesvirus 1, Vero, read-out: IC50 against HSV-1 in Vero Cells, Passage 10
Quick reference for IC50 among some compounds
Use µM as the unit, but write only the number.

compound="COc1ccc(C[C@@H](C)[C@@H](C)Cc2ccc(OC)c(OC)c2)cc1OC [Tetramethoxyl NDGA, tetramethoxyl nordihydroguaiaretic acid]" unit_symbol=µM result_number=10

// below: IC50 requested for another compound
Exercise: Query IC50 for Nc1nc2c(ncn2COCCO)c(=O)[nH]1 [ACV, acyclovir, reference compound]
Solution: 440

###

- Tested on: HSV-1
- Assay Procedure: Drug sensitivity against HSV-1 in Vero cells at different viral passages
- Assay type: cell-based
- Study Conditions: Human alphaherpesvirus 1, Vero, read-out: concentration required to inhibit HSV-1, 10th passage
Measured Property: pIC50
The read-out pIC50 is expressed as -log10 of concentration in moles per litre.

Exercise: Supply reported pIC50 belonging to this compound: Nc1nc2c(ncn2COCCO)c(=O)[nH]1 [ACV, acyclovir, reference compound]
Solution: 3.36

###

- System: HSV-1
- Assay Procedure: Drug sensitivity against HSV-1 in Vero cells at different viral passages
- Format: cell-based
- Study Conditions: Human alphaherpesvirus 1, Vero, read-out: IC50 against HSV-1 in Vero Cells, Passage 4
# reported pIC50; entries follow
# reply with the number alone; pIC50 is -log10 of concentration in mol/L

compound="Nc1nc2c(ncn2COCCO)c(=O)[nH]1 [ACV, acyclovir, reference compound]" target_under_test=HSV-1 result_number=3.86

# evaluate next
Exercise: Output pIC50 of COc1ccc(C[C@@H](C)[C@@H](C)Cc2ccc(OC)c(OC)c2)cc1OC [Tetramethoxyl NDGA, tetramethoxyl nordihydroguaiaretic acid]
Solution: 5.23
